# credit: the MegaScale stability set (Tsuboyama et al. 2023)

B1: EEHEE_rd3_1049 (parent)
chain: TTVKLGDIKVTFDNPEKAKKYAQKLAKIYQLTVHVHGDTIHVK

# Variants of: B1
# EXPERIMENTAL_DETAILS: folding stability dG (cDNA display proteolysis); higher = more stable
# MEASUREMENT_SETUP: PBS, room temperature
Assign Met to entries whose folding stability dG meets or exceeds 2 kcal/mol; assign Not met to the rest.

Task: Is the recorded value of folding stability dG equal to or greater than 2 kcal/mol for this variant? TTVKLGDIKVTFDNPEKAKKYAQKLAKIYQLTVHVHGDEIHVK [T39E]
Output: Not met

Task: Is the recorded value of folding stability dG equal to or greater than 2 kcal/mol for this variant? TTVKLGDIKVTFDNPEKAKKYAQKLAKIYQLFVHVHGDTIHVK [T32F]
Output: Not met

Task: Decide: folding stability dG of TTVKLGHIKVTFDNPEKAKKYAQKLAKIYQLTVHVHGDTIHVK [D7H] >= 2 kcal/mol?
Output: Met

Task: Given the entry TTVKLGDIAVTFDNPEKAKKYAQKLAKIYQLTVHVHGDTIHVK [K9A] , answer whether its folding stability dG meets or surpasses 2 kcal/mol.
Output: Met

Task: Item TTVKLGDIKVTFDNPEKAKKYAQKLAKIYQLTVHVHGDTISVK [H41S] with folding stability dG of 2 kcal/mol or above?
Output: Not met
